Tested on: COLO 205
Assay: NCI tumour cell line growth inhibition, 48 h
Activity calls are given as the source filed them. Rule as the data show it: active = GI50 up to about 1.1 µM and inactive = higher.
Classes used: active, inactive

>>> category("Cn1c2ccccc2c(=NNc2ccc(C(=O)O)cc2)c2ccccc21")
"inactive"
>>> category("CN(C)CCCn1c(Cc2ccccc2)nc2cc(C(F)(F)F)ccc21")
"inactive"
>>> category("CSc1ncnc2c1ncn2C1OC(CO)C(O)OC1O (stereo unspecified)")
"inactive"
>>> category("COc1c(CC=C(C)C)c(O)c(C(CC(C)C)c2c(O)c3c(c(C(C)=O)c2O)OC(C(C)(C)O)C3)c(O)c1C(C)=O (stereo unspecified)")
"inactive"
>>> category("CN(C)CCn1c(=O)c2ccc3c4c(nn3CCN(C)C)c3ccccc3n(c1=O)c24")
"active"
>>> category("CC1=CC(=O)/C(=C/n2c(=S)[nH]c3cc(C)ccc32)C(=O)O1")
"inactive"
>>> category("C[N+](C)(C)CC1CCCC1=O (stereo unspecified)")
"inactive"
>>> category("CC(=O)OC1[C@@H](OC(C)=O)CN(OCc2ccccc2)C[C@H]1OC(C)=O (stereo partly specified)")
"inactive"
>>> category("c1ccc(CSSSCc2ccccc2)cc1 [DIBENZYL TRISULFIDE]")
"inactive"
>>> category("O=C(c1cc2ccccc2cc1O)N1CCCCC1")
"inactive"
>>> category("Cc1ccc2nc(NC(=O)C(=O)CC(=O)c3cccc4ccccc34)sc2c1")
"inactive"

* * *

Tested on: T47D
Experiment: NCI tumour cell line growth inhibition, 48 h
The source made the active and inactive calls. No stated cut-off is given here; in the data, active = GI50 up to about 1.1 µM and inactive = higher.
Classes used: active, inactive

>>> category("O=C(c1cc2ccccc2cc1O)N1CCCCC1")
"inactive"
>>> category("C=C(CN(C)C)C(=O)c1ccc(C)cc1C")
"inactive"
>>> category("O=C(Nc1ccc(Cl)cc1)[C-](C(=O)c1ccc(Br)cc1)[n+]1cccc(-c2ccc(Cl)cc2)n1")
"inactive"
>>> category("COC(=O)Nc1nc2cc(NC(=O)c3ccc(I)cc3)ccc2[nH]1")
"inactive"
>>> category("O=C(NNc1nc(-c2ccccc2)cs1)Nc1ccccc1")
"inactive"
>>> category("COC(=O)Nc1nc2cc(C(=O)c3ccc[nH]3)ccc2[nH]1")
"active"
>>> category("NCc1ccccc1.O=C(O)NCc1ccccc1")
"inactive"
>>> category("CC(=O)O[C@H]1CC[C@H]2[C@@H]3CC[C@H]4Nc5c(cnn5S(C)(=O)=O)C[C@]4(C)[C@H]3CC[C@]12C")
"inactive"
>>> category("O=C1/C(=C/c2ccc3c(c2)OCO3)CCC1CN1CCOCC1 (stereo unspecified)")
"inactive"
>>> category("CN1CN(c2ccccc2)C2(CCN(Cc3csc4ccccc34)CC2)C1=O")
"inactive"
>>> category("O=C(O)C12CCC(CC1=O)C2 (stereo unspecified)")
"inactive"

* * *

Test system: MCF7
Test: NCI tumour cell line growth inhibition, 48 h
Active and inactive are the calls of the source. Cut-off read from the data, not from the text of the source: active = GI50 up to about 1.1 µM and inactive = higher.
Classes used: active, inactive

>>> category("CC(=O)O[C@H]1CC[C@H]2[C@@H]3CCC4=CC(=O)C=C[C@]4(O)[C@H]3CC[C@]12C")
"inactive"
>>> category("COc1ccccc1N1C(=O)CSC1c1cc(OC)c(OC)c(OC)c1 (centres undefined)")
"inactive"
>>> category("Cc1nc2c(cc1C(=O)N/N=C/c1ccc([N+](=O)[O-])cc1)c(=O)n(C)c(=O)n2C")
"inactive"
>>> category("COC(=O)C(Cc1cn(C(C)=O)c2ccccc12)P(=O)(OC)OC (centres undefined)")
"inactive"
>>> category("CC(C)C(/C=C/c1ccc(Cl)cc1)=N\\NC(=O)N/N=C(/C=C/c1ccc(Cl)cc1)C(C)C")
"inactive"
>>> category("CN(C)c1ccc(Cc2cc3c(O)ccc(O)c3cc(Cc3ccc(N(C)C)cc3)c2=O)cc1")
"inactive"
>>> category("CCOP(=O)(OCC)/C(F)=C/c1ccccc1")
"inactive"
>>> category("O=C1C=CC(=O)c2c1cc([N+](=O)[O-])c1ccoc21")
"inactive"
>>> category("CC(=O)c1cccc(Nc2nc3ccccc3c3[nH]c4ccccc4c23)c1")
"active"
